Below, each entry is listed with its recorded competition rate.
Tested system: T1, human MSLN-FL-his protein (human, UniProt Q13421 296-580)
T1 construct: made in HEK293E cells, purified on nickel column; also called hMSLN-FL-his; human MSLN full-length protein; not shown: His tag
T1 sequence (Q13421 other isoform, or with tags, fused parts or gaps): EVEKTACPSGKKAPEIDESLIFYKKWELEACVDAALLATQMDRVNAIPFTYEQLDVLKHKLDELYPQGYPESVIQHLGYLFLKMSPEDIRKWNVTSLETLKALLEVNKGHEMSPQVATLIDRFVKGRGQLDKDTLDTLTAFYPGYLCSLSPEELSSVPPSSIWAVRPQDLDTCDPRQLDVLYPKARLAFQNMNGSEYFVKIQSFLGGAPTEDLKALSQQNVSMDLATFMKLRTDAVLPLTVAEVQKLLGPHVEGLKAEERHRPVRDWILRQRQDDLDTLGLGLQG
Test summary: competitive ELISA; row F6-62.5; also: test concentration or dose not given here
Lab book: enter the figure in %, no units written.

| Binder | Measured attribute | Recorded number |
| --- | --- | --- |
| S009-F6-62.5 (antibody, human IgG1, kappa, V domains shown, human-murine chimeric antibody, human IgG1/kappa constant regions) VH: QVQLQQPGTELVKPGASVKLSCRASGYTFTAYWMHWVKQRPGQGLEWIGNINPSNGGTDFNEKFKSKATLTVDKSSSTAYMQLSSLTSEDSAVYYCARGRGYFDVWGTGTTVTVSS VL: DILLTQSPAILSVSPGERVSFSCRASKNIGTSIHWYQQRTNGSPRLLIKYASESISGIPSRFSGSGSGTDFTLNINSVESEDIADYYCQQSNSWPTLTFGAGTKLELKR | competition rate | -76 |

binder S009-F4-94.15 (antibody, human IgG1, kappa, V domains shown, human-murine chimeric antibody, human IgG1/kappa constant regions) VH: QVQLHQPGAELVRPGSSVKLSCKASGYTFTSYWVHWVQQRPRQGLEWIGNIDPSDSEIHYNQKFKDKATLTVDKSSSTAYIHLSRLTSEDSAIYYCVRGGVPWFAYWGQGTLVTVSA VL: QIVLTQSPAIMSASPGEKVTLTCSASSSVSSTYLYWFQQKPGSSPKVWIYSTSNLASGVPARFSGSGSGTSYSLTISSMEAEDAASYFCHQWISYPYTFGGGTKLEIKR , competition rate observed: -262

binder S009-F6-76.1 (antibody, human IgG1, kappa, V domains shown, human-murine chimeric antibody, human IgG1/kappa constant regions) VH: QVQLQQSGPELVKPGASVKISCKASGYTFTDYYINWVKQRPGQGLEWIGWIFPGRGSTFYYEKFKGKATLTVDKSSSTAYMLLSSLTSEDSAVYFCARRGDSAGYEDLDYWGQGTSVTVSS VL: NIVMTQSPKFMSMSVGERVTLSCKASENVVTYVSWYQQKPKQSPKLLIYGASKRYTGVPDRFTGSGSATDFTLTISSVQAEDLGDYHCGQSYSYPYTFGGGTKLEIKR , competition rate observed: 60

binder S009-F2-56.12 (antibody, human IgG1, kappa, V domains shown, human-murine chimeric antibody, human IgG1/kappa constant regions) VH: DVQLQESGPGMVKPSQSLSLTCTVTGYSITSGYDWHWIRHFPGNKLEWMGYISYSGSTNYNPSLKSRISITHDTSKNHFFLKLKSVTTEDTATYYCARGTGPDYWGQGTTLTVSS VL: DIVMTQSQKFMSTSVGDRVSITCKASQNVRTAVAWYQQKPGQSPKALIHLPSNRHTGVPDRFTGSGSGTDFTLTISNVQSEDLADYFCLQHWNYPLTFGGGTKLEIKR , competition rate observed: -233
